system: BT-549 breast; experiment: NCI tumour cell line growth inhibition, 48 h
Entries and their TGI
Reply numerically in µM, unit not repeated.

Look up TGI for this compound: CCC(C)Nc1ccc(N)cc1 (configuration not stated) 20.9

Next compound: OC(COC(c1ccccc1)(c1ccccc1)c1ccccc1)C(O)CC1SCCS1 (configuration not stated) 44.1

Next compound: CCOCCCn1c2c(c3c(O)cccc31)C(=O)c1ccccc1-2 87.8

Next compound: COc1ccc2c(c1OC)CO[C@@H]2[C@H]1c2c(cc3c(c2OC)OCO3)CCN1S(=O)(=O)c1cn(C)cn1 84.8

Would you kindly look at the next entry?
Look up TGI for this compound: C=CCN(CCNS(=O)(=O)c1ccc(C)cc1)S(=O)(=O)c1ccc(C)cc1 61

Attribution: PubChem BioAssay (NCI)
